Entry source: ChEMBL document CHEMBL1143481

target: Neuronal acetylcholine receptor; alpha4/beta2 (Homo sapiens, UniProt P17787+P43681); assay: Binding affinity for human Nicotinic acetylcholine receptor alpha4-beta2 expressed in HEK 293 cells using [3H]nicotine
Sequence (P17787 whole entry): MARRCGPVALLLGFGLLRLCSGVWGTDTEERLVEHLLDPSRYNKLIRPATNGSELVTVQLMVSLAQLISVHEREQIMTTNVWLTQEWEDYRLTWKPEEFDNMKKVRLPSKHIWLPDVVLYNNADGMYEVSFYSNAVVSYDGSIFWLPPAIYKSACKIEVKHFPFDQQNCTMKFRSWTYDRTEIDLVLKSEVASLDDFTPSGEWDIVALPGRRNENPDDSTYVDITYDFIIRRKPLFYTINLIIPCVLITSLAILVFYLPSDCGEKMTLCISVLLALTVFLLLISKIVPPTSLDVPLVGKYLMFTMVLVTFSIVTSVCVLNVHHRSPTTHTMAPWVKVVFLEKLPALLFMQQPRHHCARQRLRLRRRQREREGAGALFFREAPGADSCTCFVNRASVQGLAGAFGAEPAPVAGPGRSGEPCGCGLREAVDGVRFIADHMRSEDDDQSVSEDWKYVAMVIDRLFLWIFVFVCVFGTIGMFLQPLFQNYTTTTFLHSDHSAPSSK
Sequence (P43681 whole entry): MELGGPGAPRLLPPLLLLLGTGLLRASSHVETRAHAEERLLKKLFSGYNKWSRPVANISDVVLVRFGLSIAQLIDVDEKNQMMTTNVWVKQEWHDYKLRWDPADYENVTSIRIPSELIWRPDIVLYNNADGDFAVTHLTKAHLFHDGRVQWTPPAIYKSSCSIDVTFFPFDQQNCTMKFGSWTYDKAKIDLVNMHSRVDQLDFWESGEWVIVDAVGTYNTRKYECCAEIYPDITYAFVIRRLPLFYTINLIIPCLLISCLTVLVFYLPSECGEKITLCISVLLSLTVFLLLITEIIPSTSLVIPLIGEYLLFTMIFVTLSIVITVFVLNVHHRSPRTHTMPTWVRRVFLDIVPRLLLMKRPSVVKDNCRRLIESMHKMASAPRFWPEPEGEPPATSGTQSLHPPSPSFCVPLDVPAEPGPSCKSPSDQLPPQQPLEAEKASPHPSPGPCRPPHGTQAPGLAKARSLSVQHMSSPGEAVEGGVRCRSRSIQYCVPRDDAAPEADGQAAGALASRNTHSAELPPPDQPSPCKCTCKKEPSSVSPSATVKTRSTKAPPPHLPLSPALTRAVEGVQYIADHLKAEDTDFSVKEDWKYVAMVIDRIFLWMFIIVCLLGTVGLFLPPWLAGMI
Listed below: Ki values for each entry.
Number only, in nM; omit the unit.

// fetch Ki given entry CC(=O)Nc1ccc2c(c1)C1CNCC2C1 (centres undefined) 75

// fetch Ki given entry FC(F)(F)c1ccc2c(c1)C1CNCC2C1 (centres undefined) 0.33

// fetch Ki given entry Nc1ccc2c(c1)C1CNCC2C1 (centres undefined) 100

// fetch Ki given entry c1nc2cc3c(cc2[nH]1)C1CNCC3C1 (centres undefined) 0.15

====

target: Neuronal acetylcholine receptor; alpha4/beta2 (Homo sapiens, UniProt P17787+P43681); assay: Efficacy against human Nicotinic acetylcholine receptor alpha4-beta2 expressed in Xenopus oocytes at 10 uM relative to 10 uM nicotine; assay type: functional, cell-based; details: Oocyte
Listed below: Efficacy values for each entry.
Number only, in %; omit the unit.

These recorded examples may help you get a feel for the data.
>  <compound>
Cc1nc2cc3c(cc2n1CC(C)C)C1CNCC3C1 (stereo unspecified)

>  <unit spec>
%

>  <Efficacy>
190

$$$$
>  <compound>
c1cc(-c2cnc3cc4c(cc3n2)C2CNCC4C2)c[nH]1 (stereo unspecified)

>  <unit spec>
%

>  <Efficacy>
0.2

$$$$
>  <compound>
CC(C)c1nc2cc3c(cc2o1)C1CNCC3C1 (stereo unspecified)

>  <unit spec>
%

>  <Efficacy>
18

$$$$
>  <compound>
O=S(=O)(c1ccc2c(c1)C1CNCC2C1)N1CCCC1 (stereo unspecified)

>  <unit spec>
%

>  <Efficacy>
32

$$$$
>  <compound>
CCc1nc2cc3c(cc2o1)C1CNCC3C1 (stereo unspecified)

>  <unit spec>
%

>  <Efficacy>
19

$$$$

// fetch Efficacy given entry Clc1ccc2cc3c(cc2n1)C1CNCC3C1 (stereo unspecified) 300

// fetch Efficacy given entry Cc1nc2cc3c(cc2n1CC(C)(C)C)C1CNCC3C1 (stereo unspecified) 1

// fetch Efficacy given entry Cc1nc2cc3c(cc2n1C)C1CNCC3C1 (stereo unspecified) 180
